Target: ΔF508-CFTR (Homo sapiens, UniProt P13569, DEL508-508)
Construct: host or cells: CFBE41o-, doxycycline-inducible
Sequence (P13569 with tags, fused parts or gaps DEL508-508): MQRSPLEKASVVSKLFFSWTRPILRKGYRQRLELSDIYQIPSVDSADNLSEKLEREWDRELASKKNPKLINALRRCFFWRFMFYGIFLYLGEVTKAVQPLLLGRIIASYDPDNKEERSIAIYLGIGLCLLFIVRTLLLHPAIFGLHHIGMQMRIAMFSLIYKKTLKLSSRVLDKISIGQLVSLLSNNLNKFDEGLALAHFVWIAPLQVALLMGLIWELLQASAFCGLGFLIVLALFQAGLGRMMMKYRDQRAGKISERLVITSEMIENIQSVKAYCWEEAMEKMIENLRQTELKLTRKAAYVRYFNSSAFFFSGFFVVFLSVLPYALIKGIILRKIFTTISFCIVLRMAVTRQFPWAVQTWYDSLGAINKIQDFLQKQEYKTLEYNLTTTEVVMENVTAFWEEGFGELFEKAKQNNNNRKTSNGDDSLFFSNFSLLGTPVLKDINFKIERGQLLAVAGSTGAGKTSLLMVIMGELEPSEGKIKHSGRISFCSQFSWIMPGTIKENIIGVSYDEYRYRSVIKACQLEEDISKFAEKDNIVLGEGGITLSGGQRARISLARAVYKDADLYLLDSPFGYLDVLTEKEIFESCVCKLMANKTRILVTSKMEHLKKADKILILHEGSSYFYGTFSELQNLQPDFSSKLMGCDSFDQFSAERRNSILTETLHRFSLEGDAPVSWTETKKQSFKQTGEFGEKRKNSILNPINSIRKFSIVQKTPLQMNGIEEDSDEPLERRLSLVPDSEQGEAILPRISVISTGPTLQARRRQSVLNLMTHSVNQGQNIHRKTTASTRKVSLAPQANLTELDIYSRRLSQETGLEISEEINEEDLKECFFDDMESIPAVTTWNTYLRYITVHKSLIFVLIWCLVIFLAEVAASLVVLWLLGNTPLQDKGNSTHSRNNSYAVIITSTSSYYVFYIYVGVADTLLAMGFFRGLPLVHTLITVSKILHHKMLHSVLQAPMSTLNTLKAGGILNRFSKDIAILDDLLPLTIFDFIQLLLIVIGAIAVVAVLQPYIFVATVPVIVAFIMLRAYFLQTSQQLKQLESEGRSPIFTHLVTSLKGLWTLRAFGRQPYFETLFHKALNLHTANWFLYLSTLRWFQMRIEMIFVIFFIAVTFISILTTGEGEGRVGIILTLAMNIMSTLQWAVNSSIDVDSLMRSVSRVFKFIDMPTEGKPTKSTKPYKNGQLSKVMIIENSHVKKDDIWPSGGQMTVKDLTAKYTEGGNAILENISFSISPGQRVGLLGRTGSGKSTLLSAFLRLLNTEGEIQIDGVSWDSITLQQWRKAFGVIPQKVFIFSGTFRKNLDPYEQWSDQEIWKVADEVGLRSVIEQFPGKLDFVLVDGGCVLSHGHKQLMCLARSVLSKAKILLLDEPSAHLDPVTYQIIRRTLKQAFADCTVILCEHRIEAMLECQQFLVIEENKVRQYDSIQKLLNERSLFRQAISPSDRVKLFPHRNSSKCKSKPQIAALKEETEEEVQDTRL
Test: CFTR cell surface levels using HRP-tagged ΔF508-CFTR expressing CFBE cells, in the presence of a co-corrector
Format: cell-based
Details: HRP-tagged ΔF508-CFTR expressing CFBE cells, in the presence of 3 μM co-corrector
Text: Measuring CFTR Cell Surface Levels Using HRP-Tagged AF508-CFTR Expressing CFBE Cells The HRP-tagged AF508-CFTR cell assay measures the expression of CFTR-ΔF508 at the plasma membrane. […] When HRP-tagged AF508-CFTR is present at the plasma membrane, the HRP enzyme activity can be measured. The amount of CFTR-ΔF508 that can be rescued to the plasma membrane is correlated with the amount of functional enzyme that can be measured. […]
measured property: % Activation (%)
Express it in %; write the number only.

Consider the reported % Activation for these compounds:
> print(dat)
                                   compound                       experimental.system  measured.property  unit.abbreviation  data.value
1  CN1CCN(c2cc(C(=O)O)nc3c2c(C2CCC2)nn3-c2ccccc2)CC1 [compound 563]  ΔF508-CFTR (Homo sapiens, UniProt P13569, DEL508-508)       % Activation                  %      272.97
2  CN(C)CCCCOc1cc(C(=O)O)nc2c1c(C1CCC1)nn2-c1ccccc1 [compound 611]  ΔF508-CFTR (Homo sapiens, UniProt P13569, DEL508-508)       % Activation                  %       278.1
3  Cc1nn(-c2ccccc2)c2nc(C(=O)O)cc(OC[C@H](F)C3CCN(C)CC3)c12 [compound 380]  ΔF508-CFTR (Homo sapiens, UniProt P13569, DEL508-508)       % Activation                  %       141.7
4  CC(C)c1nn(-c2cncc(N3CCOCC3)c2)c2nc(C(=O)O)cc(-c3ccc(N4CCOCC4)cc3)c12 [compound 211]  ΔF508-CFTR (Homo sapiens, UniProt P13569, DEL508-508)       % Activation                  %      289.75
5  CC(C)Oc1nn(C2CCCCC2)c2nc(C(=O)O)cc(-c3ccc(N4CCN(C(C)C)CC4)cc3)c12 [compound 863]  ΔF508-CFTR (Homo sapiens, UniProt P13569, DEL508-508)       % Activation                  %       320.9

*Q* Give the reported value of % Activation for this record: Cc1nn(-c2ccccc2)c2nc(C(=O)O)cc(N3CCN(CC(=O)N(C)C)CC3)c12 [compound 323]
*A* 128.4

*Q* Give the reported value of % Activation for this record: O=C(O)c1cc(N2CCC(CN3CC(F)C3)CC2)c2c(C3CCC3)nn(-c3ccccc3)c2n1 [compound 827]
*A* 453.25

*Q* Give the reported value of % Activation for this record: O=C(O)c1cc(OCCN2CCS(=O)(=O)CC2)c2c(C3CCC3)nn(-c3ccccc3)c2n1 [compound 436]
*A* 157.15

*Q* Give the reported value of % Activation for this record: CC(C)c1nn(-c2ccc(F)cc2)c2nc(C(=O)O)cc(N3CCC(C)(N4CCCCC4)CC3)c12 [compound 784]
*A* 225.6

*Q* Give the reported value of % Activation for this record: COCC1CN(CC2CCN(c3cc(C(=O)O)nc4c3c(C3CCC3)nn4-c3ccccc3)CC2)C1 [compound 831]
*A* 402.5
